Origin of the recorded values: PubChem BioAssay

experiment: probe aNOTCH3 binding on compound microarray – biochemical, small-molecule microarray, 635/667 nm fluorescence, primary screen (AID 1120); details: higher = more signal;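 further: probe is a biotin-tagged antibody raised against NOTCH3 rather than NOTCH3 protein; score merges spot fluorescence near 667 nm with spot signal to noise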
Label rule, in plain words: composite z-score of 0.2 and up is fulfilled, under 0.2 is not fulfilled.

Some solved entries appear below for comparison.
COC(=O)[C@@]1(Cc2ccc(OC)cc2)[C@H]2c3cc(C(=O)N4CCCC4)n(CCc4ccc(O)c(OC)c4)c3C[C@H]2CN1C(=O)c1ccccc1 | fulfilled
COCCOC(=O)N1C(=O)[C@@]2(c3cc(C#CCCO)ccc31)[C@H](c1ccc(OCCO)cc1)N1[C@H](c3ccccc3)[C@H](c3ccccc3)OC(=O)[C@H]1[C@@H]2C(=O)N1CCc2cc(OC)c(OC)cc2C1 | not fulfilled
Cc1ccc(S[C@]2(C(=O)NCC(C)C)CC(=O)N(C3CCCCC3)[C@@H]2c2ccc(CO)cc2I)cc1 | not fulfilled
COC(=O)[C@@]1(Cc2ccc(OC)cc2)[C@H]2c3cc(C(=O)N4CCCC4)n(CCF)c3C[C@H]2CN1C(=O)c1ccccc1 | fulfilled
NC(=O)NCC#Cc1ccc2c(c1)[C@]1(C(=O)N2)[C@H](c2ccc(OCCO)cc2)N2[C@H](c3ccccc3)[C@H](c3ccccc3)OC(=O)[C@H]2[C@@H]1C(=O)N1CCCCCCC1 | fulfilled

Now let's try a different one.
Q: Threshold query (composite z-score >= 0.2) on `CN(C)C(=O)[C@@]1(CCS(=O)(=O)c2ccccc2)N=C(c2ccc(OCCCO)cc2)O[C@H]1c1ccccc1CN=[N+]=[N-]`
A: not fulfilled

---

composite z-score by entry:
test: probe aEGFR binding to arrayed compounds – biochemical, biotinylated probe, 635/667 nm fluorescence, primary screen (AID 1097); details: small-molecule microarray, higher = more signal;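 further: probe is a biotinylated anti-EGFR antibody binding compounds printed on slides; score combines fluorescence near 667 nm and signal to noise of each spot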
I only need the number, thanks.

Some solved cases for reference:
O=C1O[C@H](c2ccccc2)[C@H](c2ccccc2)N2[C@H]1[C@@H](C(=O)NC[C@H](O)c1ccccc1)[C@]1(C(=O)Nc3ccccc31)[C@H]2c1ccccc1OCCO | -0.109
COC(=O)c1ccc(OC)c(/C=C\CC(CCc2ccccc2)OC(C)=O)c1 (stereo not drawn) | -0.0899
CCCN1C(=O)[C@@H]2Cc3c([nH]c4ccccc34)[C@@H](c3cccc(O)c3)N2C1=O | -0.0424

Q: Given the entry `[N-]=[N+]=NCc1ccccc1C[C@]1(C(=O)NCCN2CCOCC2)COC(c2ccc(OCCCO)cc2)=N1` , report its measured composite z-score.
A: -0.0351

Q: # input compound: `COC(=O)C(CC#Cc1ccc2c(c1)[C@]1(C(=O)N2)[C@H](c2ccccc2OCCO)N2[C@H](c3ccccc3)[C@H](c3ccccc3)OC(=O)[C@H]2[C@@H]1C(=O)Nc1nc2ccccc2s1)C(=O)OC` ; wanted: its composite z-score
A: -0.0688

Q: Which composite z-score value is on record for `C=C(/C(=C/C[C@@H](OC(=O)c1ccncc1)c1ccccc1OCCO)c1cnc2ccccc2c1)C(C)C` ?
A: 0.0381

Q: I am curious: what composite z-score value has been reported for `C[C@@]1([C@@H](NC(=O)c2cccs2)c2ccc(-c3ccccc3)cc2)C[C@H]1C1CCCCC1` ?
A: -0.239

Q: Could you share which composite z-score value was measured for `C[N+](C)(C)CCCC[C@@H]1NC(=O)[C@@H]2C[C@H](C(=O)NCCCCCNC(=O)CS)[C@H](c3cccc(OCCO)c3)N2C1=O` ?
A: 0.0338
